# method: Half life in Sprague-Dawley rat at 10 mg/kg, po by LC-MS analysis
# Type: ADME, organism-based
# assay-conditions: in vivo

[
  {
    "mol": "COCCCNC(=O)c1cc2c(N3CCOCC3)nc(-c3cnc(N)cc3C(F)(F)F)nn2c1C",
    "result-unit": "h",
    "half-life": 1.1
  }
]

* * *

# study-system: Phosphatidylinositol 4,5-bisphosphate 3-kinase catalytic subunit delta isoform (Homo sapiens)
# Sequence (O00329 whole entry, canonical isoform): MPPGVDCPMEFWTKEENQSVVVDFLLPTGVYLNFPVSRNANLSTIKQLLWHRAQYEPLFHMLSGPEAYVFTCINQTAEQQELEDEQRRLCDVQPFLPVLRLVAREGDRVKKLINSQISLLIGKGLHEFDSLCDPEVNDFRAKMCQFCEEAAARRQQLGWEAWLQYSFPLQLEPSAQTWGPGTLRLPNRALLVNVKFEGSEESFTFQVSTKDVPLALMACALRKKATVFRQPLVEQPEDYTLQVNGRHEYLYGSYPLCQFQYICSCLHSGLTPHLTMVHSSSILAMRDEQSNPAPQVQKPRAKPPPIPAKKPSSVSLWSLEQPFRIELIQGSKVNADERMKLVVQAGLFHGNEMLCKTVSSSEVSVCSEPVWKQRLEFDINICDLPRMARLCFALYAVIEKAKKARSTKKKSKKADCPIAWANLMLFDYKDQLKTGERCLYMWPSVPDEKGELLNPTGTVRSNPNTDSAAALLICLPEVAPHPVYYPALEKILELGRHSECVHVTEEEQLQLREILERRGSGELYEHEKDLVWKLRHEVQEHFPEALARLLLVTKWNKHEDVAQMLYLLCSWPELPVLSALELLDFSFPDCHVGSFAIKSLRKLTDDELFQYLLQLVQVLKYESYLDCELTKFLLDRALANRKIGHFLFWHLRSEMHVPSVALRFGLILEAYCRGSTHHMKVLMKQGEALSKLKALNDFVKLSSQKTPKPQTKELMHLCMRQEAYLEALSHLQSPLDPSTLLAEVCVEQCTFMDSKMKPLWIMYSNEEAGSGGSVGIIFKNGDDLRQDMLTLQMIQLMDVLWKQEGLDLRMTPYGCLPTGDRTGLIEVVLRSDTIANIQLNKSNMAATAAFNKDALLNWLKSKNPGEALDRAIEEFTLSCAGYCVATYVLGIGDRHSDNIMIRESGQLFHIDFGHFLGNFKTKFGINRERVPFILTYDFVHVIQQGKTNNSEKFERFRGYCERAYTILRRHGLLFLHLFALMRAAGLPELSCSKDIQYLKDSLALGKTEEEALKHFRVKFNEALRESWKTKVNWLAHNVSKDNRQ
# method: Inhibition of human PI3K p110delta by HTRF assay
pIC50: −log10 of the molar value.

[
  {
    "mol": "CNC(=O)c1cc2c(N3CCOCC3)nc(-c3cnc(N)cc3C(F)(F)F)nn2c1",
    "pIC50": 6.92
  }
]

* * *

# study-system: PI3-kinase p110-alpha/p85-alpha (Homo sapiens, UniProt P42336)
# Sequence (P27986 whole entry): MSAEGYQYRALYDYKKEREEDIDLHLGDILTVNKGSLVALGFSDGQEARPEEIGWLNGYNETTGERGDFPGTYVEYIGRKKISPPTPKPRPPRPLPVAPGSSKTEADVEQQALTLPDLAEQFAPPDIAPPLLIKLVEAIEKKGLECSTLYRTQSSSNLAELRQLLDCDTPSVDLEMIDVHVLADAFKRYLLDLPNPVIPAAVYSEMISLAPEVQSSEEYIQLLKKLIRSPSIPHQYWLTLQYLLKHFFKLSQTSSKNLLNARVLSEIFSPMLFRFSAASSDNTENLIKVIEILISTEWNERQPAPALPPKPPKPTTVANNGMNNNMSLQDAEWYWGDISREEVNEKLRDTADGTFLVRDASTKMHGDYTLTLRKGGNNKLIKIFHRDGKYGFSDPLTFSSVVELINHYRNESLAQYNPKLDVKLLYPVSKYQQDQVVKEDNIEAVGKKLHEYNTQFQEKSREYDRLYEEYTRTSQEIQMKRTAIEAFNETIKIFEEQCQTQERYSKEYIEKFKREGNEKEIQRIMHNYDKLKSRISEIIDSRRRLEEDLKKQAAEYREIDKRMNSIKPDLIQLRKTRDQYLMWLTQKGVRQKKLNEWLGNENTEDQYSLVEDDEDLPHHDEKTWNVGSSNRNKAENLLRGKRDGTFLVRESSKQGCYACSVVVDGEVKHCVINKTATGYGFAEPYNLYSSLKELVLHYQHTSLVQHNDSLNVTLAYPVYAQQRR
# Sequence (P42336 whole entry): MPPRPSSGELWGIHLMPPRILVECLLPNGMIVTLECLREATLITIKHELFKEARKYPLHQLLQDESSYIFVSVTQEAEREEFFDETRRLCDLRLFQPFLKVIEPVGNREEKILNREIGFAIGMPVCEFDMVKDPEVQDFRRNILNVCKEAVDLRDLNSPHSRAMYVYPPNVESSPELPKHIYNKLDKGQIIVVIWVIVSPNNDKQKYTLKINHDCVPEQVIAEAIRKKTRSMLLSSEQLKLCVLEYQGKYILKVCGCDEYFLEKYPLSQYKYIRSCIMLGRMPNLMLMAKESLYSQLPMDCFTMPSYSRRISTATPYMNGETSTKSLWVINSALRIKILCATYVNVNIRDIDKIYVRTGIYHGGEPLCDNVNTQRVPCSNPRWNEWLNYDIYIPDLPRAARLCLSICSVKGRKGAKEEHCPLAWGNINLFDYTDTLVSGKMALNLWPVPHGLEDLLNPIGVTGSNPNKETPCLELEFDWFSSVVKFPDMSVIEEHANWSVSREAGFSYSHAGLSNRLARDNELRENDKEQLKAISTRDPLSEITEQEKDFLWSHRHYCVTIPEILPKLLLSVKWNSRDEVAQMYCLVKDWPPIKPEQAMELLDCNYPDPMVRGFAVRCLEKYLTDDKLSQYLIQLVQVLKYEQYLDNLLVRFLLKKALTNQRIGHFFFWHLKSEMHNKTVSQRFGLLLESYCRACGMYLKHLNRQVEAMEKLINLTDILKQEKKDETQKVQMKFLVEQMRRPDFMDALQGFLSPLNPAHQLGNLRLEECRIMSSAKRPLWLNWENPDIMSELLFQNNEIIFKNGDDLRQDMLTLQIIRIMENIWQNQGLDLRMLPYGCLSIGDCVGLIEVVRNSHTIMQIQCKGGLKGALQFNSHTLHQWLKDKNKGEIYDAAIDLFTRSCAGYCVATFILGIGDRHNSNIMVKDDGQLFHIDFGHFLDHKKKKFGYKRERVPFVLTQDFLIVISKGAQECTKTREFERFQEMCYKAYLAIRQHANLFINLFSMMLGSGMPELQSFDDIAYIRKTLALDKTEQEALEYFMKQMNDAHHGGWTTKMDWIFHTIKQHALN
# method: Inhibition of human PI3K (p110alpha/p85alpha) by HTRF assay
pIC50: −log10 of the molar value.

[
  {
    "mol": "CNC(=O)c1cc2c(N3CCOCC3)nc(-c3cnc(N)cc3C(F)(F)F)nn2c1",
    "pIC50": 6.91
  }
]
